tested on: VDR:RXRa (NR concentration 270 nM, RXRa partner concentration 90 nM); assay: PBM binding z-score (relative to random genomic background probes); higher = stronger binding; sequences stand for … in GC…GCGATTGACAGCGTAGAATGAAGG
Measured parameter: PBM binding z-score
Give a plain numeric answer without units written out.

Chain sequence: ATCTCTAGGTGAGACTCAGTTCAGTGAAGAACGC
Observed: 0.863
--
Chain sequence: CGTCCAAGGTCAGGGAGGTCAGTGAATGCCGAGT
Observed: 7.3
--
Chain sequence: TAGCCTAGGTCATTGGGCCAGAATAGTACGCATC
Observed: 2.01
--
Chain sequence: GCACATAGGTAATACAAGGTGAAAGTCCGATTGT
Observed: 0.394
--
Chain sequence: GCATATAGGTATTACAAGGTGAAAGTCCGATTGT
Observed: 0.134
--
Chain sequence: TCTAGTTGGTCAAAGGTCACACCCTCGAAATGCG
Observed: 5.06
--
Chain sequence: GCTCGGAGGACAAGGTCTGAGCTTTGTCCGTAGA
Observed: -0.681
--
Chain sequence: GATACAGGGTCAAGGCCAGATTACGCGTATTGAT
Observed: 4.45
--
Chain sequence: CCTGCTAGGTCAATGGTCAGCTACAGCAGCTCGC
Observed: 0.991
--
Chain sequence: TAGCCTAGGTCAGTTCGGGCCAGTATACGCTATA
Observed: 0.785

// query Please look up its PBM binding z-score: `TCGAGGAGGTTAGTCGGGGCATTCAGCCAACATA`
// result 3.8

// query Please look up its PBM binding z-score: `GCTAGTTGGACAGTAAAAGGTCACACACCGGTCG`
// result 3.84
